- Test system: TGF-b induced Endothelin-1 production
- MEASUREMENT_DESCRIPTION: ET-1 assay: inhibitory effect on TGF-b induced endothelin-1 production
- Format: cell-based
- EXPERIMENTAL_SETUP: Homo sapiens, Fibroblast; fibroblasts, stimulant (TGFb, serum, LPA etc), ET-1 in media by ELISA, 4-parameter fit
MEASURE_NAME: EC50

Name the reported EC50 value associated with the molecule Cn1cc(-c2cn(-c3ccc(OC(F)(F)F)cc3)c(=O)cc2Oc2cccc(F)c2)cn1
< 50 µM

Moving on to CC(C)Oc1ccc(-n2cc(-c3cccc(Cl)c3)ccc2=O)cc1
< 50 µM

Moving on to O=c1ccc(-c2cccc(Cl)c2)cn1-c1ccc(Cl)cc1
< 50 µM

Moving on to CCn1c(=O)oc2ccc(-c3c[nH]c(=O)cc3C)cc21
< 50 µM

Moving on to Cn1cc(-c2cn(-c3ccc(OC(F)(F)F)cc3)c(=O)c3c2OCC(=O)N3Cc2ccccc2)cn1
> 200 µM

Moving on to O=C1NC=CCN1c1ccccc1
> 200 µM

Moving on to CC(C)n1ccc2c(-c3cn[nH]c3)cn(-c3ccc(OC(F)(F)F)cc3)c(=O)c21
< 50 µM

Moving on to Cn1cc(-c2cn(-c3ccc(OC(F)(F)F)cc3)c(=O)cc2OCCN2CCCC2=O)cn1
> 200 µM

Moving on to CCOc1ccc(-n2cc(-c3ccccc3)ccc2=O)c(C)c1
50 to 200 µM

Values were extracted from patent US10233195B2.
